test system: HepG2; assay: GSK_TCMDC: Percent inhibition of human HepG2 cell line. Test compounds present at 10uM.; format: functional
Endpoint label: Inhibition (%)
Note: unit % is implicit; provide only the numeric part.

>  <Molecule>
OC1CCC(Nc2ccc3ncc(-c4ccc5ccccc5c4)n3n2)CC1 (stereo not given)

>  <Endpoint label>
Inhibition

>  <Measured result>
52

$$$$

## Task Entry under review: `COc1cccc(Nc2nc(NCCO)c3ccccc3n2)c1.Cl` . Reported Inhibition?
## Result 1

## Task Entry under review: CNS(=O)(=O)c1ccc2c(c1)nc(C1CCN(CC3CCC(NC(=O)/C=C/c4ccc(Cl)c(Cl)c4)CC3)CC1)n2C (stereo not given) . Reported Inhibition?
## Result 5

## Task Entry under review: `CN1CCC(OC(=O)c2cc3cc(-c4ccccc4)ccc3n2S(=O)(=O)c2ccccc2)CC1.Cl` . Reported Inhibition?
## Result 31
